Experiment: Caffeine solubility with co-solutes during refrigerated storage (Example 61)
Type: physicochemical
Set-up: key: (PPT)—precipitate observed; (—)—clear solution observed
Conditions: caffeine 10 mg/mL, 50 mM co-solute, 25 mM histidine pH 6, stored 2 to 5° C., Day 7
measured attribute: Day 7 (visual observation for precipitate)

Field: example entries. Status: answers known.
CN1CCCC1=O = —
O=C([O-])c1ccccc1.[Na+] [Sodium benzoate] = —
N[C@@H](Cc1ccccc1)C(=O)O = —
OCc1ccccc1 = —

Switching to the query record.
May I ask what Day 7 (visual observation for precipitate) has been recorded for NC(=O)c1cccnc1 [Nicotinamide] ?
—

====

Tested on: ustekinumab
Assay: Thermal stability at 65° C., monomer by SE-HPLC (Example 46)
Format: physicochemical
Details: excipient 5 mg/mL, ustekinumab 1 mg/mL, 20 mM histidine pH 6.0, incubated at 65° C.
Description: Therapeutic proteins are frequently subjected to fluctuations in temperatures which may lead to changes in tertiary and secondary structural elements. This can lead to aggregation of the protein and decrease the amount of active native protein. […] All excipients used in this Example, listed in Table 47 below, were of the highest purity, and were obtained from Sigma Aldrich (St. Louis, MO) or Cayman Chemical (Ann Arbor, MI).
measured attribute: Monomer Fraction % change from control (%)
State just the number; it will be interpreted in %.

O=C(CO)[C@@H](O)[C@H](O)[C@H](O)[C@H](O)CO [Sedoheptulose] = 3.4

API: value(readout=Monomer Fraction % change from control, system=ustekinumab) for record OC[C@@H](O)C(O)[C@H](O)CO [Arabitol]
6.0

Form entry - test system: ustekinumab; read-out: Monomer Fraction % change from control; molecule: Nc1ncnc2c1ncn2[C@@H]1O[C@H](CO)[C@@H](O)[C@H]1O [Adenosine]
8.4

What measured Monomer Fraction % change from control is associated with OC[C@H]1O[C@@](CO)(O[C@H]2O[C@H](CO)[C@@H](O)[C@H](O)[C@H]2O)[C@@H](O[C@H]2O[C@H](CO)[C@@H](O)[C@H](O)[C@H]2O)[C@@H]1O [Melzitose] on ustekinumab?
2.0

====

The molecules listed here are annotated with their % increase in monomer content vs. control.
Tested on: ustekinumab
Assay: Accelerated aging at 40° C. for 4 weeks, monomer by SE-HPLC (Example 58)
Assay type: physicochemical
Details: excipient 100 mM, ustekinumab 2 mg/mL, 20 mM Histidine pH 6.0, 40° C. for 4 weeks
A number alone suffices; assume %.

O=C(CO)[C@@H](O[C@H]1O[C@H](CO)[C@@H](O)[C@H](O)[C@H]1O)[C@H](O)[C@H](O)CO [Turanose] = 8.3
O=C(CO)[C@@H](O)[C@H](O)[C@H](O)[C@H](O)CO [Sedoheptulose] = 7.7
OC[C@H]1O[C@@](CO)(OC[C@@]2(O[C@H]3O[C@H](CO)[C@@H](O)[C@H](O)[C@H]3O)O[C@H](CO)[C@@H](O)[C@@H]2O)[C@@H](O)[C@@H]1O [Kestose] = 8.4

// next entry
Form: Entry = CC(=O)N[C@@H]1C(O)O[C@H](CO)[C@@H](O)[C@@H]1O (stereo partly shown) [N-Acetyl Mannosamine] | System = ustekinumab | % increase in monomer content vs. control = ____
4.4

====

Test system: omalizumab
Assay: Viscosity of omalizumab solution by DLS of gold nanoparticles (Example 62)
Conditions: Table 62B series; omalizumab approximately 200 mg/mL, excipient 0.1M or lower, His HCl pH 6.0, 25° C.
Viscosity normalized to control: recorded values
Output spec: single numeric token, no unit.

Use the examples below as a reference point.
NC(=O)c1ccc[n+]([C@@H]2O[C@H](COP(=O)([O-])O)[C@@H](O)[C@H]2O)c1 [nicotinamide mononucleotide] = 0.83
NCCCN = 0.22

Next up:
Given `O=C(O)c1cccnc1` , state its recorded Viscosity normalized to control.
0.55
